- Assay Remarks: Pharmacokinetics after single i.p. injection, serum and brain (UHPLC-MS/MS)
- Format: in vivo, mouse
- Study Conditions: both sexes, C57BL/6, mouse, brain/serum, intraperitoneal; 100 mg/kg ip; read-out: Ratio of Brain/Serum (%)
Observed Property: Kp
The response must contain the number and no unit.

Prompt line: Consider the compound C[C@H]1c2ccc(NC(=O)CCC(=O)NCCc3ccc(O)c(O)c3)c(O)c2C(=O)C2=C(O)[C@]3(O)C(=O)C(C(N)=O)=C(O)CC3[C@@H](O)C21 (stereo partly shown) and give its measured Kp.
Response line: 0.006

====

- Assay Remarks: Pharmacokinetics after single i.p. injection, serum and brain (UHPLC-MS/MS)
- Type: in vivo, mouse
- Study Conditions: both sexes, C57BL/6, mouse, serum, ip, 100 mg/kg, 100 mg/kg ip; read-out: Serum T1/2 (elimination) (converted)
Observed Property: half-life (h)
Please give a number only; it is taken to be in h.

Prompt line: What half-life value was documented for this molecule, C[C@H]1c2ccc(NC(=O)CCC(=O)NCCc3ccc(O)c(O)c3)c(O)c2C(=O)C2=C(O)[C@]3(O)C(=O)C(C(N)=O)=C(O)CC3[C@@H](O)C21 (stereo partly shown) ?
Response line: 4.74
